Values compiled from patent US20260042731A1.

Assignment: determine reported TGA Data (rate of weight loss, volatility) for the given molecules.
# PROTOCOL_SUMMARY: Volatility of compounds measured by thermogravimetric analysis (TGA)
# Assay type: physicochemical
# value in µg/min; strip the unit string

Would you kindly share the measured TGA Data (rate of weight loss, volatility) for O=C(COc1ccc(Cl)cc1Cl)Oc1cncnc1 [Compound E14] ?
0.0575

Now try O=C(COc1ccc(Cl)cc1Cl)OCc1ccccc1 [Compound E4, Benzyl 2-(2,4-dichlorophenoxy)acetate] .
0.4

# iterate: `O=C(COc1ccc(Cl)cc1Cl)ON1CCCCC1`
4

Query `Cc1ccc(S(=O)(=O)NC(=O)COc2ccc(Cl)cc2Cl)cc1` next
0.02

Please answer likewise for `O=C(COc1ccc(Cl)cc1Cl)Oc1ccncc1`
0.03683

Record: `C/C(C/C(C)=N/OC(=O)COc1ccc(Cl)cc1Cl)=N\OC(=O)COc1ccc(Cl)cc1Cl`
3.7

Input `O=C(COc1ccc(Cl)cc1Cl)Oc1cccnc1`
0.6748

Follow-up entry: `O=C(COc1ccc(Cl)cc1Cl)Nc1ccc(Cl)cc1`
0.02

Entry `O=C(COc1ccc(Cl)cc1Cl)NOCCc1ccccc1` please
0.1777

Continue with `CN(NC(=O)COc1ccc(Cl)cc1Cl)c1ccccc1`
0.06

Next molecule up: `O=C(COc1ccc(Cl)cc1Cl)OCCCOC(=O)COc1ccc(Cl)cc1Cl`
0.02488

Similarly, `CN(OC(=O)COc1ccc(Cl)cc1Cl)C(=O)c1ccccc1` ?
4.3

Same question for `O=C(COc1ccc(Cl)cc1Cl)NOCc1ccc(Cl)cc1` please.
0.03658

Could you do the same for `O=C(COc1ccc(Cl)cc1Cl)ON1C(=O)c2ccccc2C1=O` , please?
0.1

Another molecule: `O=C(COc1ccc(Cl)cc1Cl)Nc1nccs1`
0.08298

Entry `CONC(=O)COc1ccc(Cl)cc1Cl` please
0.61
